System: HeLa
test-summary: Antiproliferative activity against human HeLa cells after 48 hrs by sulforhodamine B assay
Type: functional, cell-based
assay-readout: pIC50
Scale: negative log10 of molar concentration, which is what pIC50 denotes.

# input-smiles, pIC50
data = [
    ("CC(=O)O[C@H]1[C@H]2[C@H]([C@@H]3[C@@H](OC(=O)c4ccc5c(c4)C(=O)c4ccccc4C5=O)[C@@H]4[C@H]([C@H](C)[C@H]5O[C@]56OC(=O)[C@@](C)(O)[C@]46C)[C@@]3(C)[C@H]1OC(C)=O)[C@@H](O)C(=O)[C@H]1C[C@@H]3O[C@@H]3[C@H](OC(C)=O)[C@]21C", 7.42),
    ("CC(=O)O[C@H]1[C@H]2[C@H]([C@@H]3[C@@H](O)[C@@H]4[C@H]([C@H](C)[C@H]5O[C@]56OC(=O)[C@@](C)(O)[C@]46C)[C@@]3(C)[C@H]1OC(C)=O)[C@@H](O)C(=O)[C@H]1C[C@@H]3O[C@@H]3[C@H](OC(C)=O)[C@]21C", 8.38),
    ("CC(=O)O[C@H]1[C@H]2[C@H]([C@@H]3[C@@H](O)[C@@H]4[C@H]([C@H](C)[C@H]5O[C@]56OC(=O)[C@@](C)(OC(=O)C5CC5)[C@]46C)[C@@]3(C)[C@H]1OC(C)=O)[C@@H](OC(=O)C1CC1)C(=O)[C@H]1C[C@@H]3O[C@@H]3[C@H](OC(C)=O)[C@]21C", 6.89),
]

Now for a further compound.
Input: Which pIC50 is listed for "CC(=O)O[C@H]1[C@H]2[C@H]([C@@H]3[C@@H](OC(=O)C(C)(C)C)[C@@H]4[C@H]([C@H](C)[C@H]5O[C@]56OC(=O)[C@@](C)(O)[C@]46C)[C@@]3(C)[C@H]1OC(C)=O)[C@@H](O)C(=O)[C@H]1C[C@@H]3O[C@@H]3[C@H](OC(C)=O)[C@]21C" ?
Output: 8.38
